Taken from paper PMC4301837.

assay: clinical; conditions: male, human, plasma, oral, t½, after both single and multiple doses
RECORDED METRIC: half-life

Prompt line: Find the recorded half-life belonging to N#Cc1ccc([C@H]2CCc3cncn32)c(F)c1 and report it.
Response line: ~4 h

* * *

molecular target: 11β-hydroxylase (CYP11B1), rat adrenal homogenate (Rattus norvegicus)
Sequence (P15393 25-499): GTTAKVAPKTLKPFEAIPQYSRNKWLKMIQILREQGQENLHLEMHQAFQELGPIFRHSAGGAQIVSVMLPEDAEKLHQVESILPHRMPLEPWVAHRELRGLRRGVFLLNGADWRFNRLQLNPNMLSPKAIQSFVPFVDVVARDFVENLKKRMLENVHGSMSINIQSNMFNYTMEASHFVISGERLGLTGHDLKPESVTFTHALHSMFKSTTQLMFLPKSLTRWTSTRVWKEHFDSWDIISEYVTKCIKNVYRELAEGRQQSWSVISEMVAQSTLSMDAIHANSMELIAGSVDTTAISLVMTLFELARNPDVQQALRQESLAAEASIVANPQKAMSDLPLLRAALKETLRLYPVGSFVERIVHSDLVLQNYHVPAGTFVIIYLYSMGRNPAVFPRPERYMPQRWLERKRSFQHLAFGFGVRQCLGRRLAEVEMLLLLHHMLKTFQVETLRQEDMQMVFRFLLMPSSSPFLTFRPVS
RECORDED METRIC: IC50 (µM)
Reply numerically in µM, unit not repeated.

Prompt line: May I ask what IC50 has been recorded for N#Cc1ccc([C@H]2CCc3cncn32)c(F)c1 [LCI699] ?
Response line: 3.05

* * *

biological target: recombinant rat 11β-hydroxylase (CYP11B1) (Rattus norvegicus, UniProt P15393); assay: biochemical
RECORDED METRIC: pIC50
Just so you know, pIC50 here is -log10 of the concentration in molar units; reply with that number alone.

Prompt line: Which pIC50 is reported for this molecule? N#Cc1ccc([C@H]2CCc3cncn32)c(F)c1 [LCI699]
Response line: 6.39

* * *

test: clinical; settings: male, human, plasma, po, tmax, 0.5–3 mg once daily oral
RECORDED METRIC: Tmax

Prompt line: // returns reported Tmax for input N#Cc1ccc([C@H]2CCc3cncn32)c(F)c1 [LCI699]
Response line: ~1 h

* * *

target: aldosterone synthase (CYP11B2), monkey adrenal homogenate (Macaca fascicularis, UniProt A0A2K5UPL9)
Sequence (A0A2K5UPL9 1-503): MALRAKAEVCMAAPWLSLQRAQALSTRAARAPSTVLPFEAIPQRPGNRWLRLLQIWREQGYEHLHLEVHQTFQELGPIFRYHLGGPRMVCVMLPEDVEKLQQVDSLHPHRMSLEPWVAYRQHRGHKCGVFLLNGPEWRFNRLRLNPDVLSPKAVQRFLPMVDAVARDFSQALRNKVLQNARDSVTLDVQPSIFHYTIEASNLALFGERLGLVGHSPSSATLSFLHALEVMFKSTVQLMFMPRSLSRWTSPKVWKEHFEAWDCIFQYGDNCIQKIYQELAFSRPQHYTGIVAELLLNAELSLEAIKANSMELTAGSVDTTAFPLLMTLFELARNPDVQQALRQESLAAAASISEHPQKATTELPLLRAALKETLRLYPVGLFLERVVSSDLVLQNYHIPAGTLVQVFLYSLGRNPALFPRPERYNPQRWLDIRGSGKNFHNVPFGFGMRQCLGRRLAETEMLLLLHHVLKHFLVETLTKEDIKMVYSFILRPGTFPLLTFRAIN
RECORDED METRIC: IC50 (µM)
Respond with the bare value in µM.

Prompt line: Which IC50 value is on record for N#Cc1ccc([C@H]2CCc3cncn32)c(F)c1 [LCI699] ?
Response line: 0.012

* * *

biological target: recombinant rat aldosterone synthase (CYP11B2) (Rattus norvegicus, UniProt P30099); assay: biochemical
Sequence (P30099 35-510): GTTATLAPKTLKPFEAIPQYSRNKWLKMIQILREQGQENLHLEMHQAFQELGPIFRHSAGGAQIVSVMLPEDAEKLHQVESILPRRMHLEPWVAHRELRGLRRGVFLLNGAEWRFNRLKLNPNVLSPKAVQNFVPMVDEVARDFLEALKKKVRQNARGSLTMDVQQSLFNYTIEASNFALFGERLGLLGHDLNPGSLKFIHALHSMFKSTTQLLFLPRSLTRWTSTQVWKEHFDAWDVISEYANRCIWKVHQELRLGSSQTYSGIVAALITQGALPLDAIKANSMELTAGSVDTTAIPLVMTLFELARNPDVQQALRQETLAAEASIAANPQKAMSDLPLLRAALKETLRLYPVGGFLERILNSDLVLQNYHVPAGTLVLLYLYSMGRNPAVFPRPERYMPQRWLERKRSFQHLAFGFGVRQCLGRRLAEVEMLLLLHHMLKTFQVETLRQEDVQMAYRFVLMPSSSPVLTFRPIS
RECORDED METRIC: IC50 (nM)
Respond numerically; units are nM and should not be typed.

Prompt line: Notebook entry, recombinant rat aldosterone synthase (CYP11B2) (Rattus norvegicus, UniProt P30099) assay: IC50 of N#Cc1ccc([C@H]2CCc3cncn32)c(F)c1 = ?
Response line: 160

* * *

assay: in vivo; conditions: male, Sprague-Dawley, rat, plasma, po
RECORDED METRIC: half-life

Prompt line: Item under review: N#Cc1ccc([C@H]2CCc3cncn32)c(F)c1 . Reported half-life?
Response line: 2 to 5 h

* * *

experiment: in vivo; conditions: male, cynomolgus monkey, plasma, po
RECORDED METRIC: Tmax

Prompt line: Record request: Tmax value, item N#Cc1ccc([C@H]2CCc3cncn32)c(F)c1
Response line: 0.9 to 3.5 h

* * *

experiment: clinical; details: male, human, plasma, oral, t½, single-dose phase, doses up to 200 mg
RECORDED METRIC: half-life

Prompt line: Data request, read-out half-life, for N#Cc1ccc([C@H]2CCc3cncn32)c(F)c1
Response line: ~4 h

* * *

test: in vitro; details: rat, plasma
RECORDED METRIC: fraction unbound

Prompt line: What value of fraction unbound has been recorded for this entry: N#Cc1ccc([C@H]2CCc3cncn32)c(F)c1 [LCI699]
Response line: 0.641

* * *

test: in vitro; settings: monkey, plasma
RECORDED METRIC: fraction unbound
I'd appreciate a reply containing only the number, no unit.

Prompt line: What value of fraction unbound has been reported for the following compound? N#Cc1ccc([C@H]2CCc3cncn32)c(F)c1
Response line: 0.734

* * *

biological target: aldosterone synthase (CYP11B2), rat adrenal homogenate (Rattus norvegicus, UniProt P30099)
Sequence (P30099 35-510): as the sequence (P30099 35-510) above
RECORDED METRIC: IC50 (nM)
Report the value in nM with no unit label.

Prompt line: What reported IC50 corresponds to N#Cc1ccc([C@H]2CCc3cncn32)c(F)c1 [LCI699] on aldosterone synthase (CYP11B2), rat adrenal homogenate (Rattus norvegicus, UniProt P30099)?
Response line: 802
